# system: T1, IGF1R-Fc (extracellular domain of human IGF1R aa 1-932 fused to hinge and constant regions of human IgG1) (human, UniProt P08069 31-932)
# T1 construct: range 1-932; made in house by transient transfection, purified on Protein A; also called IGF-IR-Fc; not shown: hinge and constant regions of human IgG1
parameter: koff (s⁻¹)
Number in s⁻¹, nothing else.

Example results:
E1-GS10-I1, His-tagged, non-pegylated (designed binder, bispecific EGFR/IGF-IR tandem of two 10Fn3 domains) MGVSDVPRDLEVVAATPTSLLISWVAGAEDYQYYRITYGETGGNSPVQEFTVPHDLVTATISGLKPGVDYTITVYAVTDMMHVEYTEHPISINYRTEIDKGSGSGSGSGSGSGSGSGSGSVSDVPRDLEVVAATPTSLLISWSARLKVARYYRITYGETGGNSPVQEFTVPKNVYTATISGLKPGVDYTITVYAVTRFRDYQPISINYRTEIDKPSQHHHHHH: 0.000338
E3-GS10-I1, non-pegylated (designed binder) VSDVPRDLEVVAATPTSLLISWLPGKLRYQYYRITYGETGGNSPVQEFTVPHDLRTATISGLKPGVDYTITVYAVTNMMHVEYSEYPISINYRTEIDKGSGSGSGSGSGSGSGSGSGSVSDVPRDLEVVAATPTSLLISWSARLKVARYYRITYGETGGNSPVQEFTVPKNVYTATISGLKPGVDYTITVYAVTRFRDYQPISINYRTEIDKPSQ: 0.000209
I1 IGF-IR 10Fn3-based binder, His-tagged monomer (designed binder) MGVSDVPRDLEVVAATPTSLLISWSARLKVARYYRITYGETGGNSPVQEFTVPKNVYTATISGLKPGVDYTITVYAVTRFRDYQPISINYRTEIDKPSQHHHHHH: 0.000434
I1-GS10-E1, His-tagged, non-pegylated (designed binder) MGVSDVPRDLEVVAATPTSLLISWSARLKVARYYRITYGETGGNSPVQEFTVPKNVYTATISGLKPGVDYTITVYAVTRFRDYQPISINYRTEIDKGSGSGSGSGSGSGSGSGSGSVSDVPRDLEVVAATPTSLLISWVAGAEDYQYYRITYGETGGNSPVQEFTVPHDLVTATISGLKPGVDYTITVYAVTDMMHVEYTEHPISINYRTEIDKPSQHHHHHH: 0.000398

Attention now shifts to the item below.
// returns reported koff for input I1-GS10-E3, non-pegylated (designed binder) VSDVPRDLEVVAATPTSLLISWSARLKVARYYRITYGETGGNSPVQEFTVPKNVYTATISGLKPGVDYTITVYAVTRFRDYQPISINYRTEIDKGSGSGSGSGSGSGSGSGSGSVSDVPRDLEVVAATPTSLLISWLPGKLRYQYYRITYGETGGNSPVQEFTVPHDLRTATISGLKPGVDYTITVYAVTNMMHVEYSEYPISINYRTEIDKPSQ 4.54e-05
